Please respond with reported TCF/Wnt firefly luciferase reporter signal for every item in the list.
test system: SW480; experiment: TCF/Wnt firefly luciferase reporter signal relative to plate median (fraction of plate median); higher = higher Wnt reporter signal; details: 5 µM; treatment time 24 h; reporter: 7TFP
The answer should be a number; do not append a unit.

# lookup: TCF/Wnt firefly luciferase reporter signal of "Cc1nccc2c1[nH]c1cc(O)ccc12"
0.978

# lookup: TCF/Wnt firefly luciferase reporter signal of "Cc1cccc(C)c1NC1=NCCCS1"
1.02

# lookup: TCF/Wnt firefly luciferase reporter signal of "COC1=C[C@@H]2[C@@H]3Cc4ccc(OC)c(O)c4[C@]2(CCN3C)CC1=O"
0.997

# lookup: TCF/Wnt firefly luciferase reporter signal of "COc1ccc(C(=O)O)cc1OC"
0.999

# lookup: TCF/Wnt firefly luciferase reporter signal of "CCNc1nc(Cl)nc(NC(C)C)n1"
0.976

# lookup: TCF/Wnt firefly luciferase reporter signal of CC(=O)C1CCC2C3CCC4C[C@H](O)CCC4(C)C3C[C@H](O)C12C (stereo partly drawn) [DIHYDROXY (3alpha,12alpha)PREGNAN-20-ONE]
0.986

# lookup: TCF/Wnt firefly luciferase reporter signal of "Cc1ccc(/N=C/N(C)/C=N/c2ccc(C)cc2C)c(C)c1"
0.927

# lookup: TCF/Wnt firefly luciferase reporter signal of "CN1[C@H]2C[C@H](OC(=O)[C@H](CO)c3ccccc3)C[C@@H]1[C@@H](O)C2"
0.94

# lookup: TCF/Wnt firefly luciferase reporter signal of "CC1(C)C(=O)C=C[C@@]2(C)C1=C(O)C(=O)[C@]1(C)[C@@H]2CC[C@@]2(C)[C@H](c3ccoc3)C[C@H]3O[C@]321"
1.02

# lookup: TCF/Wnt firefly luciferase reporter signal of CN1CCCCC1c1ccc(-c2cccnc2)nc1 (configuration not stated)
0.983

# lookup: TCF/Wnt firefly luciferase reporter signal of "O=C1C=CC(=O)c2ccccc21"
0.963

# lookup: TCF/Wnt firefly luciferase reporter signal of "CO[C@H]1C[C@H](O[C@H]2CC[C@@]3(C)[C@H](CC[C@@H]4[C@@H]3CC[C@]3(C)[C@@H](C5=CC(=O)OC5)[C@@H](OC(C)=O)C[C@]43O)C2)O[C@@H](C)[C@@H]1O"
0.171

# lookup: TCF/Wnt firefly luciferase reporter signal of "NC(=O)c1ccc(N)nc1"
0.91

# lookup: TCF/Wnt firefly luciferase reporter signal of "C[C@]12CC[C@H]3[C@@H](CCC4=CC(=O)CC[C@@]43C)[C@@H]1CC[C@@H]2O"
1.04

# lookup: TCF/Wnt firefly luciferase reporter signal of "CCC(=O)O[C@H]1CC[C@H]2[C@@H]3CCC4=CC(=O)CC[C@]4(C)[C@H]3CC[C@]12C"
0.99

# lookup: TCF/Wnt firefly luciferase reporter signal of "NC(N)=NOCC[C@H](N)C(=O)O"
0.991

# lookup: TCF/Wnt firefly luciferase reporter signal of "C[C@@H]1C[C@H](C)C[C@H](C)[C@@H](O)CC(=O)O[C@H]([C@@H]2CCC[C@H]2C(=O)O)C/C=C/C=C(/C#N)[C@H](O)[C@@H](C)C1"
1.06

# lookup: TCF/Wnt firefly luciferase reporter signal of "CC(=O)Oc1ccc(/C=C/c2cc(OC(C)=O)cc(OC(C)=O)c2)cc1"
1.17

# lookup: TCF/Wnt firefly luciferase reporter signal of "O=C1CC[C@@]2(O)[C@H]3Cc4ccc(O)c5c4[C@@]2(CCN3CC2CC2)[C@H]1O5"
1.03

# lookup: TCF/Wnt firefly luciferase reporter signal of "Oc1ccc2c3c1O[C@H]1[C@@H](O)CC[C@@]4(O)[C@@H](C2)N(CC2CCC2)CC[C@]314"
1.06

# lookup: TCF/Wnt firefly luciferase reporter signal of CC1(C)C2CC(=O)[C@]3(C)C(CC[C@@]4(C)[C@H](c5ccoc5)OC(=O)[C@H]5O[C@]543)[C@@]2(C)C(=O)C[C@H]1O (some centres not stated)
0.965

# lookup: TCF/Wnt firefly luciferase reporter signal of "C=C1C[C@@H]2[C@H](CC[C@]3(C)C(=O)CC[C@@H]23)[C@@]2(C)C=CC(=O)C=C12"
1.02
